Experiment: ATG_E_Box_CIS: Attagene CIS-FACTORIAL HepG2 Assay for human Enhancer Box (E-box) (AID 2282936)
Settings: HepG2 E-box cis-reporter transcription, actives raise or lower the signal
Experimental: ATG_CIS is a cell-based, multiplexed-readout assay that uses HepG2, a human liver cell line, with measurements taken at 24 hours after chemical dosing in a 24-well plate.ATG_E_Box_CIS is one of 52 assay component(s) measured or calculated from the ATG_CIS assay. […] This assay endpoint, ATG_E_Box_CIS, was analyzed with bidirectional fitting relative to DMSO as the negative control and baseline of activity. […]
Activity calls are given as the source filed them. How the source made its calls: active means hit-call score of the fitted dose curve at least 0.9, where 1 is the maximum; inactive means score below 0.9.
Return exactly one item of active, inactive

These solved cases illustrate the format of a correct answer.
>  <compound>
O=C(O)CC(O)C(=O)O (stereo not drawn)

>  <group-label>
inactive

$$$$
>  <compound>
C=CC(=C)CCC=C(C)C

>  <group-label>
inactive

$$$$
>  <compound>
CC(=O)c1ccc2c(c1)[C@H](NC(=O)c1ccc(F)cc1)[C@@H](O)C(C)(C)O2

>  <group-label>
inactive

$$$$

Enquiry: Answer briefly: the call reported for `CCCN(C1CCN(C(=O)C2CCNCC2)CC1)[C@@H]1CCc2ccc(OC)cc2C1` in this assay.
Return: active

Enquiry: Please indicate how the test categorized CCOC(=O)COc1ccc2c(c1)CC(NCC(O)c1cccc(Cl)c1)CC2 (stereo not drawn) .
Return: inactive

Values from PubChem BioAssay (EPA / NIEHS)
